# System: O. volvulus pre-adult L5
# procedure.summary: O. volvulus pre-adult (Ov L5) motility assay
# Assay type: cell-based, Onchocerca volvulus
# experimental.setup: Onchocerca volvulus, Day 36 @ 1 µM; 14 days drug then washout
I'd be grateful if you could share measured inhibition at 1 µM for these entries.

For orientation, consider the following solved cases.
| molecule | quantity | observed.result |
| --- | --- | --- |
| Cc1cc(/C=C/c2ccc3cc(N(C)C)ccc3[n+]2C)c(C)n1-c1ccccc1 [PVP, pyrvinium pamoate, reference compound] | inhibition at 1 µM | > 90% |
| Cc1ccc2c(ccc(/C=C/c3cc(C)n(-c4ccccc4)c3C)[n+]2C)c1.[I-] | inhibition at 1 µM | > 90% |

Batch: inhibition at 1 µM for all items listed.
1. Cc1nn(-c2ccccc2)c(C)c1/C=C/c1ccc2ccccc2[n+]1C.[I-]
2. Cc1cc(/C=C/c2ccc3ccccc3[n+]2C)c(C)n1-c1ccccc1.[I-]

stdout:
["> 90%", "> 90%"]

stdin: Name the reported inhibition at 1 µM value associated with the molecule Cc1ccc2c(ccc(/C=C/c3c(C)nn(-c4ccccc4)c3C)[n+]2C)c1.[I-]
stdout: > 90%

The measured values listed here are drawn from paper PMC8880385.
